Tested on: LXRa:RXRa (NR concentration 270 nM, RXRa partner concentration 90 nM)
Test: PBM binding z-score (relative to random genomic background probes); higher = stronger binding; sequences stand for … in GC…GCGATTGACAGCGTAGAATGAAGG
Below, each of the sequences is paired with its reported PBM binding z-score value.

Example cases with answers are listed next.
polymer sequence | PBM binding z-score
GCTGCTAGCTCAGGTTGGTCAGCTAACGGGTACG | -0.822
AATACAGGGTCACTAGGCTAGAGTAGGTACGAAT | 5.05
CCTAGTTGGTCAAGGTGACACACGCTATAGGTAC | 0.276
AGAATGAGGTTAAGATCAGGAAAACAGAATACAT | 1.98
AGAATGAGGTTCTACGTAGATCAGGGAAGAAAGT | -0.707
GCTGCTAGGTCAACTGATGGTTAGCTAAAGCTCG | 2.96
CAAACTAGGTCGAGGTCAAAGTCGGTTTGTGCCA | 5.1
TCAGACAGGTGATGGTAACTCAGGTACGCAGTCG | 0.602

Could you tell me which PBM binding z-score is on file for CAAACTATGTCAAGAGGTCAAAGTCCGCTTCCCG ?
5.63

What do you get for AGAACGACGGCAATGAGTTGATAGCACGGGTGGC ?
-0.86

What do you get for CAGCCTAGGTCAGGGCTAGTATAGGAGGAACGTT ?
0.697

What do you get for ACTATTAGTTGAGACGAGGGCAACTGATAGGTTG ?
-0.0348

What do you get for TCATATAGGTAAAAGGTGAAAGCCGGTGTGGTAA ?
2.07

###

Test system: RXRa DBDmut IVT, anti-RXR (DBD mutation: RXRa K156A/R161A, NR concentration 90 nM)
Assay: PBM binding z-score (relative to random genomic background probes); higher = stronger binding; sequences stand for … in GC…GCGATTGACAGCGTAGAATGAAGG
# if value of PBM binding z-score reaches 1, tag y; if it stays below, tag n

polymer sequence | assigned label
ACTAGATGGTCAGCTGAGGTCACACACAATTCGG | y
GCTTCTAGATCAAGGTTAAGAAAGACTAAGCTAA | n

Hi, just wondering whether ACAGACAGGTGAGTGAATGTAACTCAGCTGGACG shows PBM binding z-score of 1 or higher.
n

What do you get for CCGAGTAGGTTATGGGGCATTTAGGCAACGGTGA ?
n

What do you get for CTCGAAAGGTCGTGCTCAGGTGAATATACCAAAC ?
y

What do you get for TCATGTAGATCAATAGAGGTTAAGAAAGTGCGCT ?
y

What do you get for AGTCAAAGTTCACTAGGTAACGTCAGATTCAGCT ?
y

What do you get for ATCTATAGGTAACAAGTTCAGTGAAAGAGAGGAC ?
y

What do you get for CTTACTGGGCCATCAGGTCATTGATATCAACGTT ?
n

###

Test system: RARb homodimer (NR concentration 270 nM)
Assay: PBM binding z-score (relative to random genomic background probes); higher = stronger binding; sequences stand for … in GC…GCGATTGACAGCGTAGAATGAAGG
property label: PBM binding z-score
Answer with the value's number alone.

Example cases with answers are listed next.
polymer sequence | PBM binding z-score
TTACCAAGGTGAGCTGAGGTCGGTGATCCAACTC | 1.46
ATCGAAAGGTCGAGGTGAGTATAGAGAAAGGGAA | 2.86
CCTCGGAGGACATCAGGAGGTCAGAGCTGCCAGA | 3.17

Moving on to another sequence below.
Could you tell me which PBM binding z-score is on file for GCAGACAGGTGAAACGCAGGTATCTCAGGGTGGC ?
0.0151

###

Test system: RARg homodimer (NR concentration 270 nM)
Assay: PBM binding z-score (relative to random genomic background probes); higher = stronger binding; sequences stand for … in GC…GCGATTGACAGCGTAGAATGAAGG
Below, each of the sequences is paired with its reported PBM binding z-score value.
Answer with the value's number alone.

polymer sequence | PBM binding z-score
TCATATAGGTAAAGGTGAAATTCGAACGATATGA | 1.28

Could you tell me which PBM binding z-score is on file for AGAATGAGCTTACCAAAGATCAGGGAAACGCTTG ?
-0.129

What do you get for TCTACCAGGCCAGAGGGTCACTCAAGAGGTACGG ?
2.46

What do you get for TTACCAAGGTGAAGGCCGTTGATCCCTCTGTAGA ?
0.236

What do you get for ATCTCTAGGTAAAAGGTCAGTGAATCCCGAGGAT ?
4.74

What do you get for TCTATTAGTTGATGAGGGCAACCGAAACAGCGGA ?
0.907

What do you get for GGATCGAGGGCATTCGAGTTGATAGCATGGCGAT ?
1.25

What do you get for TAGCCTAGGTCATTCAGGGGCCCGTATAGAAAGC ?
3.89

What do you get for GCTGCTAGGTCAGGCTGGTCAGCTAACGGGTACG ?
4.34

What do you get for GCTTGTAAATCAAGGTTAAGAAAGACTAAGCTAA ?
0.0583

What do you get for CGAACTAGGTCATACAGGACAGTGAATACATTGA ?
4.03

What do you get for ACTTACGGGTCAACGATGTTATAGCACGCGTATA ?
5

What do you get for ATCTCTAGGTTAGACTCAGTTCAGTGAAGAACGC ?
1.14

What do you get for CTCGAAAGGTCGGTTGAGGTGAGTCTACGGATAA ?
2.99

What do you get for ATCTCTAGGTAAAAGTTCTGTGAATCCCGAGGAT ?
0.308

What do you get for CCTATTAGTTGACCAAAAGGGCAACCGAAGCTCG ?
1.84

What do you get for TGAATGAGGTTATAAGATCAGGGTACGTTGCAAA ?
1

What do you get for TAACCAAGGTGAAAGGTCGTTGATGCACGCCTTG ?
2.52

What do you get for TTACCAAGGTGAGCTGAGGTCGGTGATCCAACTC ?
0.586

What do you get for AGAATGAGGTTATACGTAGCTCAGGGAAGAAAGT ?
0.944

What do you get for TGTCAAAGTTCACAGGTAACGTAAGTATCCACAC ?
5.98

###

Tested on: PPARa:RXRa (NR concentration 270 nM, RXRa partner concentration 90 nM)
Test: PBM binding z-score (relative to random genomic background probes); higher = stronger binding; sequences stand for … in GC…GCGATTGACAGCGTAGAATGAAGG
Ranges used to classify PBM binding z-score: LOW: < 0.8; MID: ≥ 0.8 and < 2; HIGH: ≥ 2

Take a look at these entries with their results.
polymer sequence | assigned label
GTACCAAGGTGAACAGGTCGTTGATGAGTAGGCG | HIGH
TCTTGGAGGACACGAAAGGTCAGAGCTCGACATC | HIGH
ATTATTAGTTGAGACGAGGGCAACCGATAGGTTG | LOW
AGAACGAGGGCACGCTGAGTAGATAGCAGAGTAG | HIGH
AGAATGAGGTTCAGATCAGGGAAACAGAATACAT | MID
ACTCAAAGTTCATCTAGGTAACGTAAGATATGCT | HIGH
ACTCGGAGGACAATGGTCAGAGCTACGCCAGTGA | LOW
TCTATTAGCTGAAGGGCAACCGACGAGTCCGTTT | LOW

Consider the additional sequence presented here.
Hi, small favor: classify GGAACGAGGGCAAAGTTGATTGCATCTGTCGACG by its PBM binding z-score when you get a moment.
HIGH

###

Test system: RARg:RXRa (NR concentration 270 nM, RXRa partner concentration 90 nM)
Experiment: PBM binding z-score (relative to random genomic background probes); higher = stronger binding; sequences stand for … in GC…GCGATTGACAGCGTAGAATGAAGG
Below, each of the sequences is paired with its reported PBM binding z-score value.
Answer with the value's number alone.

Example cases with answers are listed next.
polymer sequence | PBM binding z-score
ATCGAAAGGTCGAAGAGGTGAGTATACACCGTTT | 4.11
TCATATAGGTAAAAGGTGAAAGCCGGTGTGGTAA | 2.11
GGAACGAGGGCAAGTTGATATCAGAGTTTGATGG | 1.66
TAGCCTAGGTCATGGGCTAGTATACCACGCGAAC | 4.26
GATACAGAGTCAAGGCCAGAGTACGCGTATTGAT | 0.0796
CGTCCAAGGTCAACGTCAGTGAAAGAGACTCGAA | 6.3
GTACCAACGTGAATAGGTCGTTGATGAGTAGGCG | 0.141

Please tell me: PBM binding z-score of CCGACTGGGGCAAGGTTTCCATAACGCACAGCCA , system RARg:RXRa (NR concentration 270 nM, RXRa partner concentration 90 nM)?
0.112
